test: Plasma pharmacokinetics of olaparib in rats after a single oral dose, alone or with metformin (UPLC-MS/MS, non-compartmental); type: in vivo, Wistar rats; conditions: male, Wistar, rat, plasma, oral, t 3 h; IMET+OLA (metformin and olaparib); group mean; read-out: Cave_ola

[
  {
    "givenSmiles": "O=C(c1cc(Cc2n[nH]c(=O)c3ccccc23)ccc1F)N1CCN(C(=O)C2CC2)CC1",
    "concentration at 3 h [ng/mL]": 4080
  }
]

----------
assay: Plasma pharmacokinetics of metformin in rats after a single oral dose, alone or with olaparib (HPLC-UV, non-compartmental); type: in vivo, Wistar rats; conditions: male, Wistar, rat, plasma, oral, t 10 h; IMET+OLA (metformin and olaparib); group mean; read-out: Cmet, S (group mean)

[
  {
    "givenSmiles": "CN(C)C(=N)N=C(N)N",
    "concentration at 10 h / ng/mL": 334
  }
]
